test system: P. aeruginosa 12; assay: microbe, parasite or virus in culture; format: cell-based; conditions: Pseudomonas aeruginosa, 12, 20 h; read-out: minimum inhibitory concentrations (MIC)
Exercise: for every item that follows, state its recorded MIC.
Note: a bare number is incomplete; add the unit.

// MIC lookup, key: C[C@H]1CN(c2c(F)c(F)c3c(=O)c(C(=O)O)cn(C4CC4)c3c2F)C[C@H]1N (relative stereo) 0.39 µg/mL

// MIC lookup, key: C[C@H]1CN(c2c(F)c(N)c3c(=O)c(C(=O)O)cn(C4CC4)c3c2F)C[C@H]1CN.Cl (relative stereo) 0.1 µg/mL

// MIC lookup, key: CC1(N)CCN(c2c(F)c(N)c3c(=O)c(C(=O)O)cn(C4CC4)c3c2F)C1 (stereo not shown) 0.2 µg/mL

// MIC lookup, key: CC1CN(c2c(F)c(F)c3c(=O)c(C(=O)O)cn(C4CC4)c3c2F)CCN1 (stereo not shown) 0.78 µg/mL

// MIC lookup, key: CCC1(N)CCN(c2c(F)c(N)c3c(=O)c(C(=O)O)cn(C4CC4)c3c2F)C1 (stereo not shown) 0.2 µg/mL

// MIC lookup, key: C[C@@H]1CN(c2c(F)c(N)c3c(=O)c(C(=O)O)cn(C4CC4)c3c2F)C[C@H]1N (relative stereo) 0.1 µg/mL

// MIC lookup, key: CCn1cc(C(=O)O)c(=O)c2c(N)c(F)c(N3CCNCC3)c(F)c21 [Compound A, reference compound] 0.78 µg/mL

----------
test: in vivo; conditions: mouse, po
Exercise: for every item that follows, state its recorded LD50 at 168 h.

// LD50 at 168 h lookup, key: CC1(N)CCN(c2c(F)c(N)c3c(=O)c(C(=O)O)cn(C4CC4)c3c2F)C1 (centres unmarked) > 2000 mg/kg

// LD50 at 168 h lookup, key: CC1CN(c2c(F)c(F)c3c(=O)c(C(=O)O)cn(C4CC4)c3c2F)CCN1 (centres unmarked) > 2000 mg/kg

// LD50 at 168 h lookup, key: C[C@@H]1CN(c2c(F)c(N)c3c(=O)c(C(=O)O)cn(C4CC4)c3c2F)C[C@H]1N (relative stereo) > 2000 mg/kg

// LD50 at 168 h lookup, key: C[C@H]1CN(c2c(F)c(F)c3c(=O)c(C(=O)O)cn(C4CC4)c3c2F)C[C@H]1N (relative stereo) > 2000 mg/kg

// LD50 at 168 h lookup, key: CCC1(N)CCN(c2c(F)c(N)c3c(=O)c(C(=O)O)cn(C4CC4)c3c2F)C1 (centres unmarked) > 2000 mg/kg

----------
assay: in vivo; set-up: species or system mice; settings: mouse, urine and feces, po, 5 mg/kg; read-out: Total recovery
measurementKind: dose excreted at 24 h (%)
Give the value, in units of %, as a plain number.

// dose excreted at 24 h lookup, key: CC1CN(c2c(F)c(F)c3c(=O)c(C(=O)O)cn(C4CC4)c3c2F)CCN1 (stereo not shown) [Compound 1] 85.7

----------
tested on: M. bovis P-7101; test: microbe, parasite or virus in culture; type: cell-based; settings: Mycobacterium tuberculosis variant bovis, P7101, 20 h; read-out: minimum inhibitory concentrations (MIC)
MIC strictly under 0.2 µg/mL means 1; at 0.2 µg/mL or over means 0.

Please check: MIC for CC1CN(c2c(F)c(F)c3c(=O)c(C(=O)O)cn(C4CC4)c3c2F)CCN1 (stereo not shown) [Compound 1] , strictly under 0.2 µg/mL or not? 0

Please check: MIC for C[C@H]1CN(c2c(F)c(F)c3c(=O)c(C(=O)O)cn(C4CC4)c3c2F)C[C@H]1N (relative stereo) [Compound 2] , strictly under 0.2 µg/mL or not? 0

Please check: MIC for CCn1cc(C(=O)O)c(=O)c2c(N)c(F)c(N3CCNCC3)c(F)c21 [Compound A, reference compound] , strictly under 0.2 µg/mL or not? 0

Please check: MIC for C[C@@H]1CN(c2c(F)c(N)c3c(=O)c(C(=O)O)cn(C4CC4)c3c2F)C[C@H]1N (relative stereo) [Compound 5] , strictly under 0.2 µg/mL or not? 1
